# test.name: Primary qHTS for inhibitors of nuclear receptor binding SET domain protein 2 (NSD2) in an RCH-ACV wild type WT cells (2C) (AID 1645877); also: nearly all actives have a fitted effect of over 70% in size; also: potency is read from the fitted curve at half-maximal effect
# condition.info: RCH-ACV (leukaemia line) NSD2 WT (2C) viability, CellTiter-Glo, 72 h; series mostly up to 44.9 µM
Results filed as inconclusive are left out. The source made the active and inactive calls. Calls follow the shape of the dose curve; as a rule, active = well fitted inhibition curve with a large enough effect; inconclusive = small, poorly fitted or top-dose-only effect; inactive = no such curve, though single readings can be large or run the other way.
assay.endpoint: Potency

Guide cases for Potency, answers given:
>>> reported("CCCCCCCCn1cc(CN(CC)CC)c2cc(-c3cnc(N)nc3)ccc21")
"3.25 µM (active)"
>>> reported("COC(=O)C1=COC(O[C@@H]2O[C@H](CO[C@@H]3O[C@H](COC(=O)/C=C\\c4ccc(O)cc4)[C@@H](O)[C@H](O)[C@H]3O)[C@@H](O)[C@H](O)[C@H]2O)C2C(CO)=CCC12 (some centres undefined)")
"inactive"
>>> reported("C=C(C(=O)OC)[C@@H]1CC=C2C=CC(=O)[C@H](C)[C@@]2(C)C1")
"20.5 µM (active)"
>>> reported("C=C1/C(=C/C=C2\\CCC[C@]3(C)[C@@H]([C@@H](C)OCCC(O)(CC)CC)CC[C@@H]23)C[C@@H](O)C[C@@H]1O")
"20.5 µM (active)"
>>> reported("C=C1C(=O)OC2/C=C(\\CO)CC/C=C(\\C=O)C(O)C(OC(=O)C(C)CC)C12 (centres undefined)")
"2.01 µM (active)"

If you can, please state the reported Potency value of "C=C1C(=O)O[C@@H]2C[C@@]3(C)CCCC(=C)[C@]3(O)C[C@H]12" . 6.49 µM (active)

Then "CC(=O)N1CCN(CCOc2ccc(C3CCN(C4=Nn5c(nnc5C(F)(F)F)CC4)CC3)cc2)CC1" ? 6.49 µM (active)

Then "CNc1cc2[nH]c(=O)n(-c3ccc(NC(=O)NS(=O)(=O)c4ccc(Cl)s4)cc3)c(=O)c2cc1F" ? inactive

Then "C=C1C(=O)O[C@@H]2/C=C(\C)CC/C=C(\C)CC[C@@H]12" ? 7.28 µM (active)

---

Here, each record is paired with measured max response data.
# Tested on: CRL-7250
# test.name: Cytotoxic Profiling of Annotated Libraries Using Quantitative High-Throughput Screening (AID 1296008); also: % is scaled to controls: 0 for no effect and ±100 for the full control effect; nearly all actives have a fitted effect of over 60% in size
# condition.info: Five cell lines viability, CellTiter-Glo ATP luminescence, 48-72 h; active compounds read low
Results filed as inconclusive are left out.
Give a bare numeral; the unit % is implied.

If you can, please state the reported max response value of C/C(=C\CCC(C)C1=CCC2(C)OC3=C(CC12)C(=O)C(O)CC3)CO (centres undefined) . -17.6

Then "CC(C)c1noc(C2CCN(c3ncnc(Nc4ccc(S(C)(=O)=O)cc4F)c3[N+](=O)[O-])CC2)n1" ? -0.282

Then "Cn1ncc(Cl)c1-c1cc(C(=O)N[C@H](CN)Cc2ccc(F)c(F)c2)sc1Cl" ? -4.08

Then "Cc1cnn(-c2ccccc2)c1NC(=O)COCc1ccccc1" ? -16.8

Then Cc1c(NC(=O)OCC2COCCN2)cn2ncnc(Nc3ccc4c(cnn4Cc4cccc(F)c4)c3)c12 (centres undefined) ? -30.6

Then C=C(CCC1C(C)(O)CCC2C(C)(C)C(O)CCC12C)C(O)CO (centres undefined) ? -26.3

Then "C[C@H](Nc1ncnc2nc[nH]c12)c1cc2cccc(Cl)c2c(=O)n1-c1ccccc1" ? -26.4

Then C=C1CC[C@@H]2[C@](C)(CO)[C@H](O)CC[C@@]2(C)[C@@H]1CC(O)C1=CCOC1=O (some centres undefined) ? -6.08

Then C=C1CCCC2(C)CCC(C(C)(C)OC3OC(C)C(O)C(O)C3OC(=O)/C(C)=C\C)CC12 (centres undefined) ? 3.11
